# test.summary: NCI Yeast Anticancer Drug Screen. Data for the rad50 strain (AID 155);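 also: 0% = growth of vehicle-only cultures of the same strain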
# settings: S. cerevisiae rad50 strain growth inhibition; at 50.0 µM; hits give high values
# Description: Growth inhibition of yeast strains with defined genetic alterations is measured as a screen for potential anti-cancer activity. Selected strains with alterations in DNA damage repair or cell cycle control were exposed to compounds and growth inhibition was measured relative to vehicle treated controls. The strain used in this assay is rad50
This is part of a sample that, as a whole, favours compounds with a hit. Of some 79,000 tested, about 15% had one in any assay.
Classes by growth inhibition: LOW (below 60%), MID (60% to below 80%), HIGH (80% or more)

compound=CCC(=O)OCCn1c2nc(=O)[nH]c(=O)c-2nc2cc(C)c(C)cc21 group=LOW
compound=O=[N+]([O-])c1cccc([N+](=O)[O-])c1S(=O)(=O)c1ccccc1 group=HIGH
compound=CN(CCc1ccccn1)c1ccc2c(c1)Cc1ccccc1-2 group=HIGH
compound="CCCCCCCCCCC1CCC(=O)O1 (configuration not stated)" group=HIGH
compound=Cc1cc(O)cc(O)c1N=Nc1ccc([N+](=O)[O-])cc1 group=MID

**Q:** Which band does Nc1ccccc1CC(O)C(=O)O (configuration not stated) fall in?
**A:** HIGH

**Q:** Which band does Cc1ccc2ccc3cccc4ccc1c2c34 fall in?
**A:** LOW

**Q:** Which band does Cn1c(=O)c2ccccc2c2ccccc21 fall in?
**A:** HIGH

**Q:** Which band does Nc1nc(-c2cccnc2)cc(-c2cc(-c3cccnc3)nc(N)n2)n1 fall in?
**A:** LOW

**Q:** Which band does CCCCCCCCCCCC1=C(O)C(=O)C=C(O)C1=O fall in?
**A:** LOW

* * *

# test.summary: NCI Yeast Anticancer Drug Screen. Data for the mec2-1 strain (AID 157)
# settings: S. cerevisiae mec2-1 strain, at 50.0 µM
About 79,000 compounds went through this panel and 15% of them were active in at least one assay; those are over-represented in the sample as a whole. Active and inactive are the calls of the source. Cut-off read from the data, not from the text of the source: active = growth inhibition above about 70%; inactive = the rest.
Hi there, use one of these labels in your reply, thanks! T (active), F (inactive)

molecule=c1ccc2c(c1)C(=NCCCN1CCCCCC1)c1cccn1-2 group=F
molecule=Cc1nc(-[n+]2nc(-c3ccncc3)nn2-c2ccccc2)sc1C group=T
molecule=CCCCCCCCCCCC1=C(O)C(=O)C=C(O)C1=O group=F

**Q:** Name the outcome recorded for CC(=O)OCc1ccc(O)c(C=O)c1 in the assay.
**A:** F

**Q:** Name the outcome recorded for O=[N+]([O-])c1cccc2nccc(NCCCO)c12 in the assay.
**A:** F

**Q:** Name the outcome recorded for CCCC/C=C/C(CC)(C(=O)OCC)C(=O)OCC in the assay.
**A:** F

* * *

# test.summary: NCI Yeast Anticancer Drug Screen. Data for the mgt1 strain (AID 153)
# settings: S. cerevisiae mgt1 mutant growth inhibition; at 11.0 µM
About 79,000 compounds went through this panel and 15% of them were active in at least one assay; those are over-represented in the sample as a whole. Activity calls are given as the source filed them. Cut-off read from the data, not from the text of the source: active = growth inhibition above about 70%; inactive = the rest.
Hi there, use one of these labels in your reply, thanks! True for active, False for inactive

These recorded examples may help you get a feel for the data.
molecule="O=C1NC(=O)C2C3C=CC(C3)C12 (stereo not given)" group=True
molecule=Cc1cc(O)cc(O)c1N=Nc1ccc([N+](=O)[O-])cc1 group=False

**Q:** Name the outcome recorded for COc1cc(CC2CC(c3ccc4c(c3)OCO4)OC2=O)cc(OC)c1OC (stereo not given) in the assay.
**A:** False

**Q:** Name the outcome recorded for COc1cc(C2SCC(=O)N2c2ccc(-c3ccc(-n4c(-c5ccccc5)nc5ccccc5c4=O)cc3)cc2)cc(OC)c1OC (stereo not given) in the assay.
**A:** False

**Q:** Name the outcome recorded for N#Cc1ccc(C2NN=CC23C(=O)c2ccccc2OC3c2ccccc2)cc1 (stereo not given) in the assay.
**A:** False

* * *

# test.summary: NCI Yeast Anticancer Drug Screen. Data for the rad50EPP+ strain (AID 151);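 also: 0% = growth of vehicle-treated control cultures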
# settings: S. cerevisiae rad50 mutant strain, at 33.0 µM, hits give high values
The panel holds about 79,000 compounds, 15% with a hit somewhere; the sample as a whole holds those more often.
property: growth inhibition (%)
Write down the numeric answer in % and omit the unit.

compound=COc1ccc(/C=C/C(=O)C(C)(C)Br)cc1 observed=97
compound=COc1cc2c(cc1[N+](=O)[O-])C(=O)C(Br)(Br)CCC2 observed=100
compound=CC1=C(SCCO)C(=O)c2ccccc2C1=O observed=75
compound=O=C1C(=O)c2ccccc2C=C1[N+](=O)[O-] observed=15
compound=CCOC(=O)c1cnc2cc(C(F)(F)F)ccc2c1N=[N+]=[N-] observed=54

**Q:** # return recorded growth inhibition for input CC(O)C(O)C(O)C(/C=N\Nc1ccccc1)=N/Nc1ccccc1 (centres undefined)
**A:** 50

**Q:** # return recorded growth inhibition for input c1ccc(-c2nc3cccnc3s2)cc1
**A:** 19

* * *

This section presents molecules with their documented growth inhibition values.
# test.summary: NCI Yeast Anticancer Drug Screen. Data for the rad52 strain (AID 147);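 also: 0% = growth of vehicle-treated control cultures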
# settings: S. cerevisiae rad52 mutant growth inhibition; at 100.0 µM; hits give high values
This is part of a sample that, as a whole, favours compounds with a hit. Of some 79,000 tested, about 15% had one in any assay.
Write down the numeric answer in % and omit the unit.

**Q:** # return recorded growth inhibition for input CNC(=O)OCc1c(COC(=O)NC)c(-c2ccc(-c3ccccc3)cc2)n(C)c1C
**A:** 68

**Q:** # return recorded growth inhibition for input COc1ccc(N=C2C(=O)Nc3ccc(Br)cc32)cc1
**A:** 17

**Q:** # return recorded growth inhibition for input O=C(c1ccc(Cl)cc1Cl)C(Cl)Cl
**A:** 98

**Q:** # return recorded growth inhibition for input O=CC=C(c1ccccc1)c1ccccc1
**A:** 95

**Q:** # return recorded growth inhibition for input N#CSc1ccc(S(N)(=O)=O)cc1
**A:** 64

**Q:** # return recorded growth inhibition for input CC(C)(Br)C(=O)/C=C/c1ccc(Cl)c(Cl)c1
**A:** -4

**Q:** # return recorded growth inhibition for input CSC(=S)Nc1cc(C)ccn1
**A:** 82

**Q:** # return recorded growth inhibition for input CCC/C(Cl)=N\OC(=O)Nc1ccc(Br)cc1
**A:** 98

**Q:** # return recorded growth inhibition for input Nc1ccccc1CC(O)C(=O)O (stereo unspecified)
**A:** 88

**Q:** # return recorded growth inhibition for input Brc1ccc(-c2cc3c(cc2C2SCCS2)OCO3)cc1
**A:** 27

**Q:** # return recorded growth inhibition for input OC1CCCc2c1cc1ccc3cccc4ccc2c1c34 (stereo unspecified)
**A:** 91

**Q:** # return recorded growth inhibition for input Cc1ccc(S/N=C\c2ccccc2O)cc1
**A:** 8

**Q:** # return recorded growth inhibition for input O=C(/C=C/c1cccc(Br)c1)c1cccs1
**A:** 94

**Q:** # return recorded growth inhibition for input CC(C)(C)c1nc2c(o1)C(=O)c1ccccc1C2=O
**A:** 98

**Q:** # return recorded growth inhibition for input Cc1ccc(S(=O)(=O)NNC(=S)Nc2cccc3ccccc23)cc1
**A:** 6

* * *

This section presents compounds with their documented growth inhibition values.
# test.summary: NCI Yeast Anticancer Drug Screen. Data for the mec2-1 strain (AID 157)
# settings: S. cerevisiae mec2-1 strain, at 100.0 µM, hits give high values
Compounds without any hit were thinned out: in the full panel of roughly 79,000, 15% have a hit.
Write down the numeric answer in % and omit the unit.

compound=S=C(S)NN1CCOCC1 observed=35

// below: growth inhibition requested for another compound
**Q:** # return recorded growth inhibition for input c1ccc2c(c1)Oc1cccc3cccc-2c13
**A:** 20

* * *

This section presents compounds with their documented growth inhibition values.
# test.summary: NCI Yeast Anticancer Drug Screen. Data for the rad18 strain (AID 177)
# settings: S. cerevisiae rad18 mutant growth inhibition; at 33.0 µM; hits give high values
This is part of a sample that, as a whole, favours compounds with a hit. Of some 79,000 tested, about 15% had one in any assay.
Write down the numeric answer in % and omit the unit.

compound=[N-]=N[N+]#I1OC(C(F)(F)F)(C(F)(F)F)c2ccccc21 property="growth inhibition" units_symbol=% observed=99
compound=COc1cccc2nc3ccccc3nc12 property="growth inhibition" units_symbol=% observed=84
compound=N#CSc1ccc(S(N)(=O)=O)cc1 property="growth inhibition" units_symbol=% observed=28

**Q:** # return recorded growth inhibition for input COC(=O)c1ccc(CCC2=CC(=O)C(Br)=CC2=O)cc1
**A:** -25

**Q:** # return recorded growth inhibition for input CCNc1nnc(CSc2nc(-c3ccccc3)c(-c3ccccc3)[nH]2)s1
**A:** 89

**Q:** # return recorded growth inhibition for input O=C1C2C=CC1C1C(=O)OC(=O)C21 (stereo unspecified)
**A:** -28

Origin of the recorded values: PubChem BioAssay (NCI)
